- experiment_description: Cyclic voltammetry
- Format: physicochemical
- cond: acetonitrile, scan rate 100 mV s−1
assay_readout: ipa/ipc, ratio of anodic to cathodic current
Lab note: jot down the number only; don't add units.

Data request: What value of measured ipa/ipc, ratio of anodic to cathodic current is listed for O=[N+]([O-])c1ccc(/C=N/N=C/c2ccc(Cl)cc2)s1 [3b] ?
Data returned: 0.889

Data request: Try Cc1ccc(/C=N/N=C/c2ccc([N+](=O)[O-])s2)cc1 [5b] next.
Data returned: 1.000

Data request: Item: COc1ccc(/C=N/N=C/c2ccc([N+](=O)[O-])s2)cc1 [6b]
Data returned: 0.990

Data request: Moving on to the next compound: O=[N+]([O-])c1ccc(/C=N/N=C/c2ccc(F)cc2)o1 [2a]
Data returned: 0.990

Data request: Proceed to O=[N+]([O-])c1ccc(/C=N/N=C/c2ccc(Cl)cc2)o1 [3a]
Data returned: 0.967

Data request: Record: O=[N+]([O-])c1ccc(/C=N/N=C/c2ccc(O)cc2)o1 [8a]
Data returned: 0.943

Data request: Could you do the same for O=[N+]([O-])c1ccc(/C=N/N=C/c2ccc([N+](=O)[O-])s2)cc1 [9b] , please?
Data returned: 0.951

Consider the additional compound presented here.
Data request: What value of ipa/ipc, ratio of anodic to cathodic current has been reported for the following compound? O=[N+]([O-])c1ccc(/C=N/N=C/c2ccc(Br)cc2)o1 [4a]
Data returned: 0.891

====

- experiment_description: Cyclic voltammetry
- Assay type: physicochemical
- cond: acetonitrile, scan rate 100 mV s−1, V vs. Ag/AgCl
# reported E1/2, half wave potential (E1/2 = (Epa + Epc)/2); entries follow
State just the number; it will be interpreted in V.

Solved cases (5 shown):
Data request: Quick one: E1/2, half wave potential (E1/2 = (Epa + Epc)/2) for O=[N+]([O-])c1ccc(/C=N/N=C/c2ccc(F)cc2)o1 ?
Data returned: −0.92

Data request: Subsequent entry: O=[N+]([O-])c1ccc(/C=N/N=C/c2ccccc2)s1
Data returned: −0.95

Data request: O=Cc1ccc([N+](=O)[O-])s1 [NTA, 5-nitrothiophene-2-carboxaldehyde, reference compound] , same question.
Data returned: −0.96

Data request: What would you report for COc1ccc(/C=N/N=C/c2ccc([N+](=O)[O-])s2)cc1 ?
Data returned: −0.92

Data request: Subsequent entry: O=[N+]([O-])c1ccc(/C=N/N=C/c2ccc(O)cc2)o1
Data returned: −0.95

Others:
Data request: Quick one: E1/2, half wave potential (E1/2 = (Epa + Epc)/2) of COc1ccc(/C=N/N=C/c2ccc([N+](=O)[O-])o2)cc1 ?
Data returned: −0.85

Data request: Same lookup for O=[N+]([O-])c1ccc(/C=N/N=C/c2ccc(OCc3ccccc3)cc2)o1 , please.
Data returned: −0.91

Data request: Let us now turn to O=Cc1ccc([N+](=O)[O-])o1 [NFA, 5-nitro-2-furaldehyde, reference compound]
Data returned: −0.88

Data request: Queued: O=[N+]([O-])c1ccc(/C=N/N=C/c2ccc(Br)cc2)o1
Data returned: −0.93

====

Measured ΔEp, wave potential separation (Epa − Epc) of individual entries
- experiment_description: Cyclic voltammetry
- Format: physicochemical
- cond: acetonitrile, scan rate 100 mV s−1
Hey, just the number and the unit after it is fine.

Data request: Reported ΔEp, wave potential separation (Epa − Epc) for O=[N+]([O-])c1ccc(/C=N/N=C/c2ccccc2)o1 [1a] : what is it?
Data returned: 0.24 V

Data request: What about this molecule? O=[N+]([O-])c1ccc(/C=N/N=C/c2ccc(Br)cc2)o1 [4a]
Data returned: 0.26 V

Data request: O=[N+]([O-])c1ccc(/C=N/N=C/c2ccc(O)cc2)s1 [8b] ?
Data returned: 0.24 V

Data request: Quick one: O=[N+]([O-])c1ccc(/C=N/N=C/c2ccc(OCc3ccccc3)cc2)o1 [7a]
Data returned: 0.26 V

Next:
Data request: Please give the measured ΔEp, wave potential separation (Epa − Epc) for this molecule: O=[N+]([O-])c1ccc(/C=N/N=C/c2ccc(O)cc2)o1 [8a]
Data returned: 0.26 V

====

Epc, cathodic wave potential: recorded values
- experiment_description: Cyclic voltammetry
- Type: physicochemical
- cond: acetonitrile, scan rate 100 mV s−1, V vs. Ag/AgCl
Give your result in V as a bare value.

Data request: What Epc, cathodic wave potential value was documented for this compound, O=[N+]([O-])c1ccc(/C=N/N=C/c2ccccc2)o1 ?
Data returned: −1.00

Data request: Can you check O=[N+]([O-])c1ccc(/C=N/N=C/c2ccc(F)cc2)o1 next?
Data returned: −1.06

Data request: Now try O=[N+]([O-])c1ccc(/C=N/N=C/c2ccc(Br)cc2)o1 .
Data returned: −1.06

Data request: Okay, and O=[N+]([O-])c1ccc(/C=N/N=C/c2ccc([N+](=O)[O-])s2)cc1 ?
Data returned: −1.06

# context switch: different compound, same Epc, cathodic wave potential
Data request: Which Epc, cathodic wave potential is reported for this compound? O=Cc1ccc([N+](=O)[O-])o1 [NFA, 5-nitro-2-furaldehyde, reference compound]
Data returned: −1.02

====

- experiment_description: Cyclic voltammetry
- Format: physicochemical
- cond: acetonitrile, scan rate 100 mV s−1, V vs. Ag/AgCl
Label key: Satisfied means E1/2, half wave potential (E1/2 = (Epa + Epc)/2) under -0.9 V; Not satisfied means E1/2, half wave potential (E1/2 = (Epa + Epc)/2) of -0.9 V or more.

A selection of reference data follows.
Data request: Input O=[N+]([O-])c1ccc(/C=N/N=C/c2ccc([N+](=O)[O-])o2)cc1 [9a] ; condition: E1/2, half wave potential (E1/2 = (Epa + Epc)/2) strictly below -0.9 V. Does it hold?
Data returned: Satisfied

Data request: For Cc1ccc(/C=N/N=C/c2ccc([N+](=O)[O-])o2)cc1 [5a] then?
Data returned: Satisfied

Data request: Now try O=[N+]([O-])c1ccc(/C=N/N=C/c2ccc(Cl)cc2)s1 [3b] .
Data returned: Not satisfied

Data request: Check O=[N+]([O-])c1ccc(/C=N/N=C/c2ccc(Cl)cc2)o1 [3a] too.
Data returned: Satisfied

Data request: Try the molecule O=[N+]([O-])c1ccc(/C=N/N=C/c2ccc(O)cc2)s1 [8b]
Data returned: Satisfied

Let's switch to this molecule now.
Data request: A record lists O=[N+]([O-])c1ccc(/C=N/N=C/c2ccc([N+](=O)[O-])s2)cc1 [9b] . Is its E1/2, half wave potential (E1/2 = (Epa + Epc)/2) below -0.9 V?
Data returned: Satisfied

====

Measured ipa/ipc, ratio of anodic to cathodic current values are reported for all entries that follow.
- experiment_description: Cyclic voltammetry
- Type: physicochemical
- cond: acetonitrile, scan rate 100 mV s−1
Answer with a bare number; do not write a unit.

Reference set, count: 4
Data request: Fill in the blank: the reported ipa/ipc, ratio of anodic to cathodic current of O=[N+]([O-])c1ccc(/C=N/N=C/c2ccccc2)s1 [1b] is ____.
Data returned: 1.032

Data request: Try O=Cc1ccc([N+](=O)[O-])o1 [NFA, 5-nitro-2-furaldehyde, reference compound] next.
Data returned: 0.967

Data request: Cool, now O=Cc1ccc([N+](=O)[O-])s1 [NTA, 5-nitrothiophene-2-carboxaldehyde, reference compound]
Data returned: 0.755

Data request: Param item: O=[N+]([O-])c1ccc(/C=N/N=C/c2ccc(Br)cc2)s1 [4b]
Data returned: 0.961

Proceeding to the next compound to report its ipa/ipc, ratio of anodic to cathodic current.
Data request: Which ipa/ipc, ratio of anodic to cathodic current reading was recorded for the compound COc1ccc(/C=N/N=C/c2ccc([N+](=O)[O-])o2)cc1 [6a] ?
Data returned: 0.965

====

- experiment_description: Cyclic voltammetry
- Assay type: physicochemical
- cond: acetonitrile, scan rate 100 mV s−1, V vs. Ag/AgCl
assay_readout: Epc, cathodic wave potential (V)
Express the result in V but write the number alone.

Record excerpt, results attached:
Data request: What Epc, cathodic wave potential value was documented for this compound, O=[N+]([O-])c1ccc(/C=N/N=C/c2ccc(O)cc2)s1 ?
Data returned: −1.06

Data request: For O=[N+]([O-])c1ccc(/C=N/N=C/c2ccccc2)s1 then?
Data returned: −1.06

Data request: And the next one, O=[N+]([O-])c1ccc(/C=N/N=C/c2ccc(Br)cc2)s1 ?
Data returned: −1.04

Data request: Next entry: COc1ccc(/C=N/N=C/c2ccc([N+](=O)[O-])o2)cc1
Data returned: −1.02

Continuing:
Data request: # get_value(readout='Epc, cathodic wave potential', item= Cc1ccc(/C=N/N=C/c2ccc([N+](=O)[O-])s2)cc1 )
Data returned: −1.02

Data request: O=[N+]([O-])c1ccc(/C=N/N=C/c2ccc(OCc3ccccc3)cc2)o1 , same question.
Data returned: −1.04

Data request: Can you handle Cc1ccc(/C=N/N=C/c2ccc([N+](=O)[O-])o2)cc1 next?
Data returned: −1.06

Data request: Quick one: COc1ccc(/C=N/N=C/c2ccc([N+](=O)[O-])s2)cc1
Data returned: −1.04

Data request: Now the compound O=Cc1ccc([N+](=O)[O-])s1 [NTA, 5-nitrothiophene-2-carboxaldehyde, reference compound]
Data returned: −1.06

Data request: Same thing, different compound: O=[N+]([O-])c1ccc(/C=N/N=C/c2ccc([N+](=O)[O-])o2)cc1
Data returned: −1.06
